experimental system: human recombinant vasopressin V1a receptor (Homo sapiens, UniProt P37288)
Construct: gene AVPR1A; full-length recombinant receptor in 1321N1 host cells (PerkinElmer)
Sequence (P37288 whole entry): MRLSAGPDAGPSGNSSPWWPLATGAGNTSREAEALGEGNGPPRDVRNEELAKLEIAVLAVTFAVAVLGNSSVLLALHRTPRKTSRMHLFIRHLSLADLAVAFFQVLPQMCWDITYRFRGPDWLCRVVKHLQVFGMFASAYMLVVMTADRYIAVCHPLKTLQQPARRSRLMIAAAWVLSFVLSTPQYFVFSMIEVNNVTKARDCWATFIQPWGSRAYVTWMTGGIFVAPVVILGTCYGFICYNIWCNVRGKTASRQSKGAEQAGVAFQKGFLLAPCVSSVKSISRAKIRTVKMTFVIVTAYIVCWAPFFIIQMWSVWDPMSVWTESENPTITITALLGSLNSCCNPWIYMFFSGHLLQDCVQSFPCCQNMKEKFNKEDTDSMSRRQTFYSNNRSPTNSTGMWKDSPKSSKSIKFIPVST
experimental details: radioligand binding assay
measurement context: read-out: Bingding Assy (IC50; nmol/mL) / V1a
# pIC50 annotations
Quick note: pIC50 means taking -log10 of the concentration in moles per liter.

CCC(=O)Nc1ccc(C(=O)N2CCC(=C3c4ccc(Cl)cc4CCc4cccnc43)CC2)cc1 : 3.89
O=C(Nc1ccc(C(=O)N2CCC(=C3c4ccc(Cl)cc4CCc4cccnc43)CC2)cc1)c1ccccc1 : 3.48
CCS(=O)(=O)Nc1ccc(C(=O)N2CCC(=C3c4ccc(Cl)cc4CCc4cccnc43)CC2)cc1 : 4.04
CCCC(=O)Nc1cccc(S(=O)(=O)N2CCC(=C3c4ccc(Cl)cc4CCc4cccnc43)CC2)c1 : 3.75

# context switch: different molecule, same pIC50
Please fill in: pIC50 reported for `CCCC(=O)Nc1ccc(S(=O)(=O)N2CCC(=C3c4ccc(Cl)cc4CCc4cccnc43)CC2)cc1` = 3.32
